- Tested on: CP315
- assay.text: qHTS profiling for inhibitors of Plasmodium falciparum proliferation (AID 504749); also: nearly all actives have a fitted effect of over 60% in size
- conditions.used: P. falciparum in erythrocytes, SYBR Green DNA, 72 h; series mostly up to 28.7 µM
Records with an inconclusive call do not appear. The source made the active and inactive calls. Calls follow the shape of the dose curve; as a rule, active = well fitted inhibition curve with a large enough effect; inconclusive = small, poorly fitted or top-dose-only effect; inactive = flat fitted curve, though single readings scatter.
readout.name: outcome

# molecule, system.name, outcome
records = [
    ("CCC(Cc1c(I)cc(I)c(O)c1I)C(=O)O (stereo unspecified)", "CP315", "inactive"),
    ("CCSc1ccc2c(c1)N(CCCN1CCN(C)CC1)c1ccccc1S2", "CP315", "inactive"),
    ("CCN(CC)CCOC(=O)c1cccnc1", "CP315", "inactive"),
    ("Cc1nc(NS(=O)(=O)c2ccc(N)cc2)nc(C)c1Br", "CP315", "inactive"),
    ("Cc1c(C)c2c(c(C)c1OC(=O)CCC(=O)O)CC[C@@](C)(CCC[C@H](C)CCC[C@H](C)CCCC(C)C)O2", "CP315", "inactive"),
]

// lookup outcome for OCC(O)CO
inactive

// lookup outcome for O=P(O)(O)OP(=O)(O)O
inactive

// lookup outcome for O=C(O[C@H]1CN2CCC1CC2)N1CCc2ccccc2[C@@H]1c1ccccc1
inactive

// lookup outcome for O=C(CCCCCCCCCCCCC1CCCC1)Nc1ccc(S(=O)(=O)c2ccc(NC(=O)CCCCCCCCCCCCC3CCCC3)cc2)cc1
inactive

// lookup outcome for CC(=O)Nc1ccc(NC(=S)NC(=O)c2ccc(C(C)(C)C)cc2)cc1
inactive

// lookup outcome for CC(C)=CCC/C(C)=C/CC/C(C)=C/CC/C=C(\C)CC/C=C(\C)CCC=C(C)C
inactive

----------
- Tested on: ICS
- assay.text: qHTS profiling for inhibitors of Plasmodium falciparum proliferation (AID 504749); also: nearly all actives have a fitted effect of over 60% in size
- conditions.used: P. falciparum in erythrocytes, SYBR Green DNA, 72 h; series mostly up to 28.7 µM
Records with an inconclusive call do not appear. The source made the active and inactive calls. The call rests on the fitted dose curve; in most records, active means well fitted inhibition curve with a large enough effect; inconclusive means small, poorly fitted or top-dose-only effect; inactive means flat fitted curve, though single readings scatter.
Outcome (select one): true (active), false (inactive)

Can you look up the reported call for O=C(O)COc1ccc(CCNS(=O)(=O)c2ccccc2)s1 for me?
false

Can you look up the reported call for CC(C)(C)CC(C)(C)c1ccc(OCCO)cc1 for me?
false

Can you look up the reported call for CO[C@H]1C[C@@H]2CC[C@@H](C)[C@@](O)(O2)C(=O)C(=O)N2CCCC[C@H]2C(=O)O[C@H]([C@H](C)C[C@@H]2CC[C@@H](OC(=O)C(C)(CO)CO)[C@H](OC)C2)CC(=O)[C@H](C)/C=C(\C)[C@@H](O)[C@@H](OC)C(=O)[C@H](C)C[C@H](C)/C=C/C=C/C=C/1C for me?
false

Can you look up the reported call for OCl for me?
false

Can you look up the reported call for c1ccc2ccccc2c1 for me?
false

Can you look up the reported call for O=C(O)CCC(=O)c1ccc(-c2ccccc2)cc1 for me?
false

Can you look up the reported call for O=P(O)(O)OC[C@H](O)CO for me?
false

Can you look up the reported call for Cn1c(O)c(N=NC(N)=S)c2ccccc21 for me?
true

Can you look up the reported call for CN(C)CCOc1ccc(/C(=C(/CCCl)c2ccccc2)c2ccccc2)cc1 for me?
false

Can you look up the reported call for [O-][N+](=Nc1ccccc1)c1ccccc1 for me?
false

Can you look up the reported call for O=P(O)(O)O for me?
false

----------
- Tested on: CP203
- assay.text: qHTS profiling for inhibitors of Plasmodium falciparum proliferation (AID 504749); also: nearly all actives have a fitted effect of over 60% in size
- conditions.used: P. falciparum in erythrocytes, SYBR Green DNA, 72 h; series mostly up to 28.7 µM
Inconclusive results are not listed. Calls of active or inactive are those of the source. Calls come from the whole dose curve; as a rule, active = well fitted inhibition curve with a large enough effect; inconclusive = small, poorly fitted or top-dose-only effect; inactive = flat fitted curve, though single readings scatter.
readout.name: outcome

# compound, readout.name, val
records = [
    ("C[C@]12CC[C@@H]3c4ccc(OC(=O)c5ccccc5)cc4CC[C@H]3[C@@H]1CC[C@@H]2O", "outcome", "inactive"),
    ("CCC(C)[C@@H](N)C(=O)O (some centres not stated)", "outcome", "inactive"),
    ("CN1C(=O)C[C@@H](C(=O)N[C@@H](Cc2cnc[nH]2)C(=O)N2CCC[C@H]2C(N)=O)NC1=O", "outcome", "inactive"),
    ("FCOC(C(F)(F)F)C(F)(F)F", "outcome", "inactive"),
    ("CCN(CC)CCOc1ccccc1OC", "outcome", "inactive"),
]

// lookup outcome for C[C@H](N)C(=O)N[C@@H](C)P(=O)(O)O
inactive

// lookup outcome for CCCCCCCCCCCCCCCCCC(=O)OCC(C)O (configuration not stated)
inactive

// lookup outcome for O=C(O)Cc1cc(I)c(Oc2ccc(O)c(I)c2)c(I)c1
inactive

// lookup outcome for CC(=O)Oc1cccc(C(=O)O)c1OC(C)=O
inactive

// lookup outcome for C/C=C/C=C/C(=O)O
inactive

// lookup outcome for Cc1ncc(C[n+]2csc(CCOP(=O)(O)OP(=O)(O)O)c2C)c(N)n1
inactive

----------
- System: CP252
- assay.text: qHTS profiling for inhibitors of Plasmodium falciparum proliferation (AID 504749); also: nearly all actives have a fitted effect of over 60% in size
- conditions.used: P. falciparum in erythrocytes, SYBR Green DNA, 72 h; series mostly up to 28.7 µM
Inconclusive results are not listed. Activity calls are given as the source filed them. Calls follow the shape of the dose curve; as a rule, active = well fitted inhibition curve with a large enough effect; inconclusive = small, poorly fitted or top-dose-only effect; inactive = flat fitted curve, though single readings scatter.
Outcome (select one): Y (active), N (inactive)

Can you look up the reported call for COC(=O)CC[C@H](N)C(=O)O for me?
N

Can you look up the reported call for Cc1cccc(C)c1NC(=O)NC1=CCCN1C for me?
N

Can you look up the reported call for CSCCC(N)C(=O)O (configuration not stated) for me?
N

Can you look up the reported call for OCCCNc1ccccc1 for me?
N

Can you look up the reported call for NC(=O)CC[C@@H]1NC(=O)[C@H](Cc2ccccc2)NC(=O)[C@H](Cc2ccc(O)cc2)NC(=O)[C@@H](N)CSSC[C@@H](C(=O)N2CCC[C@H]2C(=O)N[C@@H](CCCN=C(N)N)C(=O)NCC(N)=O)NC(=O)[C@H](CC(N)=O)NC1=O for me?
N

Can you look up the reported call for CC(C)CCCC(C)NC(C)C (configuration not stated) for me?
N

Can you look up the reported call for CC(=O)c1ccc2c(c1)N(CCCN1CCN(CCO)CC1)c1ccccc1S2 for me?
Y

Can you look up the reported call for S=C1SCN(Cc2ccccc2)CN1Cc1ccccc1 for me?
N

Can you look up the reported call for CCCc1nc(C(C)(C)O)c(C(=O)OCc2oc(=O)oc2C)n1Cc1ccc(-c2ccccc2-c2nn[nH]n2)cc1 for me?
N

Can you look up the reported call for CCOc1ccc(S(=O)(=O)O)c2cccnc12 for me?
N

Can you look up the reported call for CC1CCC(NC(=O)N(CCCl)N=O)CC1 (configuration not stated) for me?
N

Can you look up the reported call for O=P(O)(O)OC[C@H](O)CO for me?
N

Can you look up the reported call for C/C=C/C=C/C(=O)O for me?
N

Can you look up the reported call for NCC[C@H](O)C(=O)N[C@@H]1C[C@H](N)[C@@H](O[C@H]2O[C@H](CN)CC[C@H]2N)[C@H](O)[C@H]1O[C@H]1O[C@H](CO)[C@@H](O)[C@H](N)[C@H]1O for me?
N

Can you look up the reported call for OCCOCCOCCO for me?
N

Can you look up the reported call for C=Cc1ccc(S(=O)(=O)O)cc1 for me?
N

Can you look up the reported call for O=P(O)(O)O for me?
N

Can you look up the reported call for CN1CCC(OC(=O)C(Oc2ccc(Cl)cc2)Oc2ccc(Cl)cc2)CC1 for me?
N

Can you look up the reported call for CO/N=C(\C(=O)N[C@@H]1C(=O)N2C(C(=O)[O-])=C(C[n+]3cccc4c3CCC4)CS[C@H]12)c1csc(N)n1 for me?
N

Can you look up the reported call for COc1ccc(/C=N/NC(=O)c2ccncc2)c(C(=O)O)c1OC for me?
N

Can you look up the reported call for FC(F)OC(Cl)C(F)(F)F (configuration not stated) for me?
N

Can you look up the reported call for CC(C)(CO)[C@@H](O)C(=O)NCCC(=O)NCCSSCCNC(=O)CCNC(=O)[C@H](O)C(C)(C)CO for me?
N

Can you look up the reported call for CC(=O)Oc1cccc2c1C(=O)c1c(OC(C)=O)cc(C(=O)O)cc1C2=O for me?
N

Can you look up the reported call for C=CC(C)(O)CC/C=C(\C)CCC=C(C)C (configuration not stated) for me?
N

Can you look up the reported call for CC(C)=CCC/C(C)=C/C=C/C(C)=C/C=C/C(C)=C/C=C/C=C(C)/C=C/C=C(C)/C=C/C=C(\C)CCC=C(C)C for me?
N

Can you look up the reported call for CC(=O)Nc1ccc(NC(=S)NC(=O)c2ccc(C(C)(C)C)cc2)cc1 for me?
N

Can you look up the reported call for Nc1ncnc2c1ncn2[C@H]1CC[C@@H](CO)O1 for me?
N

Can you look up the reported call for CCCCCCOC(=O)c1cccnc1 for me?
N

Can you look up the reported call for CC(C)(COP(=O)(O)OP(=O)(O)OC[C@H]1O[C@@H](n2cnc3c(N)ncnc32)[C@H](O)[C@@H]1OP(=O)(O)O)C(O)C(=O)NCCC(=O)NCCS (some centres not stated) for me?
N

Can you look up the reported call for CC(=O)Oc1cc(C(F)(F)F)ccc1C(=O)O for me?
N

Can you look up the reported call for CCOC(=O)c1cc(-c2ccccc2)nc2ccc(C)cc12 for me?
N

Can you look up the reported call for CC(C)(C)c1ccc2c(S(=O)(=O)O)c(C(C)(C)C)ccc2c1 for me?
N

Can you look up the reported call for CC1=C(/C=C/C(C)=C/C=C/C(C)=C/C(=O)Oc2c(C)c(C)c3c(c2C)CC[C@@](C)(CCC[C@H](C)CCC[C@H](C)CCCC(C)C)O3)C(C)(C)CCC1 for me?
N

Can you look up the reported call for Nc1nccs1 for me?
N

Can you look up the reported call for CC(=O)[O][Al][O]C(C)=O for me?
N

Can you look up the reported call for C=CC[C@@H]1/C=C(\C)C[C@H](C)C[C@H](OC)[C@H]2O[C@@](O)(C(=O)C(=O)N3CCCC[C@H]3C(=O)O[C@H](/C(C)=C/[C@@H]3CC[C@@H](O)[C@H](OC)C3)[C@H](C)[C@@H](O)CC1=O)[C@H](C)C[C@@H]2OC for me?
Y

Can you look up the reported call for CC(C)CCC[C@@H](C)[C@H]1CC[C@H]2[C@@H]3CC=C4C[C@@H](O)CC[C@]4(C)[C@H]3CC[C@]12C for me?
N

Can you look up the reported call for [O-][N+](=Nc1ccccc1)c1ccccc1 for me?
N

Can you look up the reported call for C[C@H](CCC(=O)O)[C@H]1CC[C@H]2[C@@H]3CC[C@@H]4C[C@H](O)CC[C@]4(C)[C@H]3C[C@H](O)[C@]12C for me?
N

Can you look up the reported call for CNC(=O)C[C@@H](N)C(=O)N[C@@H](C(=O)N[C@@H]1C(=O)N2[C@@H]1SC(C)(C)[C@@H]2C(=O)O)c1ccc(O)cc1 for me?
N

Can you look up the reported call for CCN(CC)C(=S)S for me?
N

Can you look up the reported call for COc1cc(NCCCC(C)N)c2ncccc2c1 (configuration not stated) for me?
Y
